Target: GR complex
Test: modulation of [35S]TBPS binding in rat cerebral cortex P2 homogenate
Design: species or system Sprague-Dawley rats
Settings: concentration of compounds to inhibit 50% of control [35S]TBPS binding; 2 nM [35S]TBPS, 25°C, 90 minutes; unit inferred
Experimental: We performed several experiments to determine the nature of the modulation of [^35S]TBPS as affected by the compounds of the invention. These procedures were performed as follows: Brains from male Sprague-Dawley rats were removed immediately following sacrifice and the cerebral cortices dissected over ice. […] Briefly, the cortices were gently homogenized in 0.32 M sucrose followed by centrifugation at 1000 x g for 10 minutes. The supernatant was collected and centrifuged at 9000 x g for 20 minutes. […]
The reader will find reported IC50 values listed item by item below.
READOUT: IC50

{"COMPOUND": "CC(=O)OCC(=O)[C@H]1CC[C@H]2[C@@H]3CC[C@@H]4C[C@@](O)(C(F)(F)F)CC[C@]4(C)[C@H]3CC[C@]12C", "RESULT": "0.37 µM"}
{"COMPOUND": "C#C[C@@]1(O)CC[C@@]2(C)[C@H](CC[C@@H]3[C@@H]2CC[C@]2(C)[C@@H](C(=O)COC(=O)CCC(=O)OCC(=O)[C@H]4CC[C@H]5[C@@H]6CC[C@@H]7C[C@@](O)(C#C)CC[C@]7(C)[C@H]6CC[C@]45C)CC[C@@H]32)C1", "RESULT": "0.068 µM"}
{"COMPOUND": "CC(=O)[C@H]1CC[C@H]2[C@@H]3CC[C@H]4C[C@@](O)(C(F)(F)F)CC[C@@H]4[C@H]3CC[C@]12C", "RESULT": "0.251 µM"}
{"COMPOUND": "C[C@]12CC[C@H]3[C@@H](CC[C@@H]4C[C@@](O)(C(F)(F)F)CC[C@@H]43)[C@@H]1CC[C@@H]2C(=O)COC(=O)CCC(=O)[O-].[Na+] [sodium salt]", "RESULT": "0.53 µM"}
{"COMPOUND": "CC(=O)OCC(=O)[C@H]1CC[C@H]2[C@@H]3CC[C@H]4C[C@H](O)CC[C@]4(C)[C@H]3CC[C@]12C", "RESULT": "0.075 µM"}
{"COMPOUND": "CC(=O)[C@H]1CC[C@H]2[C@@H]3CC[C@H]4C[C@@](O)(CF)CC[C@]4(C)[C@H]3CC[C@]12C", "RESULT": "0.2 µM"}

----------
Target: GR complex
Assay: modulation of [35S]TBPS binding in rat cerebral cortex P2 homogenate
Design: species or system Sprague-Dawley rats
Details: concentration of compounds to inhibit 50% of control [35S]TBPS binding; 2 nM [35S]TBPS, 25°C, 90 minutes; unit inferred
pIC50: −log10 of the molar value.
READOUT: pIC50

{"COMPOUND": "CC(=O)C1=CC[C@H]2[C@@H]3CC[C@@H]4C[C@](C)(O)CC[C@]4(C)[C@H]3CC[C@]12C", "COMPARISON_SYMBOL": "=", "RESULT": 6.02}
{"COMPOUND": "C[C@]12C[C@H](O)[C@H]3[C@@H](CCC4=CC(=O)CC[C@@]43C)[C@@H]1CC[C@@H]2C(=O)CO [corticosterone, reference compound]", "COMPARISON_SYMBOL": "<", "RESULT": 6.00}
{"COMPOUND": "C#CC1(O)CCC2(C)C(CCC3C2CCC2(C)C(C(C)O)CCC32)C1 (stereo not drawn) [3α,20α-dihydroxy-3β-ethynyl-5β-pregnane, 3β-Ethynyl-3α,20α-dihydroxy-5β-pregnane]", "COMPARISON_SYMBOL": "=", "RESULT": 6.25}
{"COMPOUND": "C#C[C@@]1(O)CC[C@H]2[C@H](CC[C@@H]3[C@@H]2CC[C@]2(C)[C@@H](C(C)=O)CC[C@@H]32)C1", "COMPARISON_SYMBOL": "=", "RESULT": 7.36}
{"COMPOUND": "CC(=O)[C@H]1CC[C@H]2[C@@H]3CC[C@@H]4C[C@@](O)(C(F)(F)F)CC[C@@H]4[C@H]3CC[C@]12C", "COMPARISON_SYMBOL": "=", "RESULT": 7.12}
{"COMPOUND": "C[C@@]1(O)CC[C@@]2(C)[C@@H](CC[C@@H]3[C@@H]2CC[C@]2(C)[C@@H](C(=O)COC(=O)CCC(=O)O)CC[C@@H]32)C1", "COMPARISON_SYMBOL": "=", "RESULT": 6.62}

----------
Recorded IMAX values for a group of compounds are listed next.
System: GR complex
Assay: modulation of [35S]TBPS binding in rat cerebral cortex P2 homogenate
Set-up: species or system Sprague-Dawley rats; unit not given here
Conditions: maximum inhibition of [35S]TBPS binding; I* = Inactive
READOUT: IMAX

{"COMPOUND": "CC12CCC(O)(C(F)(F)F)CC1CCC1C2CCC2(C)C(C(=O)CBr)CCC12 (stereo not drawn)", "READOUT": "IMAX", "RESULT": 102}
{"COMPOUND": "C[C@]12CC[C@@H](O)C[C@@H]1CC[C@@H]1[C@@H]2CC[C@]2(C)[C@@H](C(=O)COC(=O)CCC(=O)[O-])CC[C@@H]12.[Na+]", "READOUT": "IMAX", "RESULT": 92}
{"COMPOUND": "CC[C@H](O)[C@H]1CC[C@H]2[C@@H]3CC[C@H]4C[C@H](O)CC[C@]4(C)[C@H]3CC[C@]12C [3α,20α-dihydroxy-21-methyl-5α-pregnane, 3α,20α-Dihydroxy-21-methyl-5α-pregnane]", "READOUT": "IMAX", "RESULT": 28}

----------
Measured log10 IC50 accompanies every entry in the list below.
Target: GR complex
Assay: modulation of [35S]TBPS binding in rat cerebral cortex P2 homogenate
Design: species or system Sprague-Dawley rats
Details: concentration of compounds to inhibit 50% of control [35S]TBPS binding; 2 nM [35S]TBPS, 25°C, 90 minutes; unit inferred
READOUT: log10 IC50 (log10 of the value in nM)

{"COMPOUND": "CC(=NCCO)[C@H]1CC[C@H]2[C@@H]3CC[C@H]4C[C@](C)(O)CC[C@]4(C)[C@H]3CC[C@]12C", "MEASURED_ON": "GR complex", "RESULT": 2.00}
{"COMPOUND": "CC12CCC(O)(C(F)(F)F)CC1CCC1C2CCC2(C)C(C(=O)COC(=O)C=CC(=O)[O-])CCC12.[Na+] (stereo not drawn) [hemifumarate sodium salt]", "MEASURED_ON": "GR complex", "RESULT": 2.74}
{"COMPOUND": "CC(=O)C1CCC2C3CCC4CC(O)(C#CCCCCl)CCC4(C)C3CCC12C (stereo not drawn)", "MEASURED_ON": "GR complex", "RESULT": 1.64}
{"COMPOUND": "C[C@]12CC[C@@H](O)C[C@@H]1CC[C@@H]1[C@@H]2CC[C@]2(C)[C@@H](C(=O)CO)CC[C@@H]12 [3α,21-dihydroxy-5α-pregnan-20-one, reference compound]", "MEASURED_ON": "GR complex", "RESULT": 1.88}
{"COMPOUND": "CC(C)(O)[C@H]1CC[C@H]2[C@@H]3CC[C@H]4C[C@H](O)CC[C@]4(C)[C@H]3CC[C@]12C [3α,20-dihydroxy-20-methyl-5α-pregnane]", "MEASURED_ON": "GR complex", "RESULT": 2.25}
{"COMPOUND": "CCC(=O)[C@H]1CC[C@H]2[C@@H]3CC[C@@H]4C[C@H](O)CC[C@]4(C)[C@H]3CC[C@]12C [3α-hydroxy-21-methyl-5β-pregnan-20-one]", "MEASURED_ON": "GR complex", "RESULT": 1.89}
{"COMPOUND": "C[C@]12CC[C@](O)(C(F)(F)F)C[C@H]1CC[C@@H]1[C@@H]2CC[C@]2(C)[C@@H](C(=O)CO)CC[C@@H]12", "MEASURED_ON": "GR complex", "RESULT": 2.55}
{"COMPOUND": "CC[C@H](O)[C@H]1CC[C@H]2[C@@H]3CC[C@H]4C[C@H](O)CC[C@]4(C)[C@H]3CC[C@]12C [3α,20α-dihydroxy-21-methyl-5α-pregnane, 3α,20α-Dihydroxy-21-methyl-5α-pregnane]", "MEASURED_ON": "GR complex", "RESULT": 1.54}
{"COMPOUND": "C[C@@]1(O)CC[C@@]2(C)[C@@H](CC[C@@H]3[C@@H]2CC[C@]2(C)[C@@H](C(=O)CO)CC[C@@H]32)C1", "MEASURED_ON": "GR complex", "RESULT": 2.41}
{"COMPOUND": "CCC[C@H](O)[C@H]1CC[C@H]2[C@@H]3CC[C@H]4C[C@H](O)CC[C@]4(C)[C@H]3CC[C@]12C [3α,20α-dihydroxy-21-ethyl-5α-pregnane]", "MEASURED_ON": "GR complex", "RESULT": 1.43}
{"COMPOUND": "CC(O)C1CCC2C3CCC4CC(C)(O)CCC4(C)C3CCC12C (stereo not drawn) [3α,20β-dihydroxy-3β-methyl-5α-pregnane]", "MEASURED_ON": "GR complex", "RESULT": 2.97}
